Each recorded value in this set is attributed to patent US20260285866A1.

study_system: Human TRPML3 (Homo sapiens, UniProt Q8TDD5)
Sequence (Q8TDD5 whole entry): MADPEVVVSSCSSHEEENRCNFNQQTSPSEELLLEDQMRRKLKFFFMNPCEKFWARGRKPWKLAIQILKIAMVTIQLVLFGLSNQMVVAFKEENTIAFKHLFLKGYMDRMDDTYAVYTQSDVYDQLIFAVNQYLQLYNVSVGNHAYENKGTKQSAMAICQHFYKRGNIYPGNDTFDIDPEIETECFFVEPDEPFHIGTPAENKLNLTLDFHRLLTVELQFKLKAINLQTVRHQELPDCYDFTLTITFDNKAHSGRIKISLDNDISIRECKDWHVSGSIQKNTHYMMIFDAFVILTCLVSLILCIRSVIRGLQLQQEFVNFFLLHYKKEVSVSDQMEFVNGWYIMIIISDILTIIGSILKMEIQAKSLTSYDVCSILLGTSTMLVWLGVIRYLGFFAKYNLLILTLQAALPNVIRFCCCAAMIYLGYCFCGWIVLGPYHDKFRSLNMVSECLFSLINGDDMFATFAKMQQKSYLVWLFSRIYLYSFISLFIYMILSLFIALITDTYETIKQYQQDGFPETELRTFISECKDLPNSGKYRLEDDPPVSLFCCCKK
assay_info: Fluorescent TRPML3 assay (as for TRPML1)
experimental_setup: fluorescent calcium assay as for TRPML1, TRPML3 subtype
pEC50: −log10 of the molar value.
experimental_readout: pEC50

chemical_string	experimental_readout	result
C[C@@H]1CN(c2ncnc3c2c(-c2cocn2)cn3-c2cc(C#N)ccn2)[C@@H](C)CN1C(=O)C(C)(C)O	pEC50	< 5.70
CCOC(C)(C)C(=O)N1C[C@H](C)N(c2ncnc3c2c(-c2ccccc2)cn3-c2cc(C#N)ccn2)C[C@H]1C	pEC50	> 7.00
C[C@@H]1CN(c2ncnc3c2c(N2CCC2)cn3-c2cc(C#N)ccn2)[C@@H](C)CN1C(=O)C(C)(C)O	pEC50	< 5.70

Data request: Can you look up the measured pEC50 of C[C@@H]1CN(c2ncnc3c2c(-c2ccccc2)cn3-c2cc(C#N)ccn2)[C@@H](C)CN1C(=O)C1(O)COC1 for me?
Data returned: 5.70 to 6.30

Data request: Repeat for the following molecule: C[C@@H]1CN(c2ncnc3c2c(-c2ccccc2)cn3-c2cc(C#N)ccn2)[C@@H](C)CN1C(=O)C1(O)CN(C)C1
Data returned: < 5.70

Data request: Also, C[C@@H]1CN(c2ncnc3c2c(-c2ccccc2)cn3-c2cc(C#N)ccn2)[C@@H](C2CC2)CN1C(=O)C(C)(C)O please.
Data returned: 5.70 to 6.30

Data request: Same thing, different molecule: C[C@@H]1CN(c2ncnc3c2c(-c2ccncc2)cn3-c2cc(F)ccn2)[C@@H](C)CN1C(=O)C(C)(C)O
Data returned: < 5.70

Data request: Now the molecule COC1(C(=O)N2C[C@H](C)N(c3ncnc4c3c(-c3ccccc3F)cn4-c3cc(C#N)ccn3)C[C@H]2C)CN(C)C1
Data returned: > 7.00

Data request: Next up: CC(C)(O)C(=O)N1CCN(c2ncnc3c2c(-c2ccccc2)cn3-c2cc(C#N)ccn2)[C@@H](C2CC2)C1
Data returned: 5.70 to 6.30

Data request: Another molecule to look at: C[C@@H]1CN(c2ncnc3c2c(-c2ccccc2F)cn3-c2cc(OC(F)(F)F)ccn2)[C@@H](C)CN1C(=O)C(C)(C)O
Data returned: 5.70 to 6.30

Data request: Another molecule: C[C@@H]1CN(c2ncnc3c2c(-c2ccccc2F)cn3-c2cc(C#N)ccn2)[C@@H](C)CN1C(=O)C1(O)CCCC1
Data returned: > 7.00

Data request: Same question for C[C@@H]1CN(c2ncnc3c2c(-c2ccncc2)cn3-c2cccc(C#N)c2)[C@@H](C)CN1C(=O)C(C)(C)O please.
Data returned: < 5.70

Data request: Also C[C@@H]1CN(c2ncnc3c2c(-c2ccncc2)cn3-c2cccc(OC(F)(F)F)c2)[C@@H](C)CN1C(=O)C(C)(C)O , if possible.
Data returned: < 5.70
